- target_desc: EBI2 (Homo sapiens, UniProt P32249)
- Sequence (P32249 whole entry): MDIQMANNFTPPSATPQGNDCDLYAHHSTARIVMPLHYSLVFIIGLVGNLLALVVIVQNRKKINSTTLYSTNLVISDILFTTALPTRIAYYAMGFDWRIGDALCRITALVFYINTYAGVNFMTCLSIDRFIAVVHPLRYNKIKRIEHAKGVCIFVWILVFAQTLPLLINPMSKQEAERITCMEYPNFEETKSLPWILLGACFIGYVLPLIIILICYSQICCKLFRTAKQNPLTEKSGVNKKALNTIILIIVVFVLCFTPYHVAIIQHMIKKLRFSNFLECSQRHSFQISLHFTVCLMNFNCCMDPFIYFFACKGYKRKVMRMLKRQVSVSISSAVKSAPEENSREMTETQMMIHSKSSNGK
- procedure_text: Cell-based luminescent assay (EBI2 modulation)
- details: cell-based luminescence; 7a,25-OHC final assay concentration 80 nM; 60 minutes incubation; read-out: IC50
assay_metric: IC50

Use the examples below as a reference point.
Task: State the recorded IC50 for this entry: O=C(/C=C/c1ccccc1)N1CCN(C(=O)/C=C/c2ccccc2)CC1
Result: < 100 nM

Task: IC50 lookup needed for O=C(c1ccc(C(F)(F)F)cc1)N1CCN(C(=O)c2cc3cc(C(F)(F)F)ccc3[nH]2)CC1 , thanks.
Result: < 100 nM

Task: Consider the molecule O=C(c1ccc(F)cc1)N1CCN(C(=O)c2cc3cc(Br)ccc3[nH]2)CC1 and give its measured IC50.
Result: < 100 nM

Next:
Task: # query: IC50 of entry O=C(c1cc2cc(C(F)(F)F)ccc2[nH]1)N1CCN(Cc2cc(F)cc(F)c2)CC1
Result: < 100 nM

Task: Request the reported IC50 associated with O=C(/C=C/c1ccccc1F)N1CCN(C(c2ccccc2)c2ccccc2)CC1
Result: < 100 nM

Task: I have this molecule here, O=C(c1cc2cc(Cl)ccc2[nH]1)N1CCC(Oc2ccc(C(F)(F)F)cc2)CC1 , and I need its recorded IC50.
Result: 100 to 500 nM

----------
Reported pIC50 values are given for each entry in this list.
- target_desc: EBI2 (Homo sapiens, UniProt P32249)
- procedure_text: Cell-based luminescent assay (EBI2 modulation)
- details: cell-based luminescence; 7a,25-OHC final assay concentration 80 nM; 60 minutes incubation; read-out: IC50
pIC50: −log10 of the molar value.

Some entries whose results are on file:
Task: Under EBI2 (Homo sapiens, UniProt P32249): pIC50 value of O=C(c1cnc2cc(F)ccc2c1)N1CCN(C(c2ccccc2)c2ccccc2)CC1 ?
Result: > 7.00

Task: What is its pIC50 for EBI2 (Homo sapiens, UniProt P32249)? Entry: O=C(c1cc2ccc(Cl)cc2[nH]1)N1CCN(C(=O)c2ccc(F)cc2C(F)(F)F)CC1
Result: 6.30 to 7.00

Task: What pIC50 appears in the records for this molecule with EBI2 (Homo sapiens, UniProt P32249)? COc1ccc(CN2CCN(C(=O)C#Cc3cccc(Cl)c3)CC2)cc1
Result: 6.30 to 7.00

***
Task: What value of pIC50 on EBI2 (Homo sapiens, UniProt P32249) does O=C(c1cc2cc(Cl)ccc2[nH]1)N1CCN(C(=O)c2nc3ccccc3[nH]2)CC1 have?
Result: 6.30 to 7.00

Task: GET /values?readout=pIC50&system=EBI2 (Homo sapiens, UniProt P32249)&item= O=C(c1cc2ccc(Br)cc2[nH]1)N1CCN(Cc2ccc(F)cc2)CC1
Result: 6.30 to 7.00

Task: Request: pIC50, test system EBI2 (Homo sapiens, UniProt P32249), entry CC(C)c1ccc(S(=O)(=O)N2CCN(C(=O)/C=C/c3ccc(F)cc3)CC2)cc1
Result: > 7.00

----------
- target_desc: EBI2 (Homo sapiens)
- procedure_text: Cell-based luminescent assay (EBI2 modulation)
- details: cell-based luminescence; 7a,25-OHC final assay concentration 80 nM; 60 minutes incubation; read-out: IC50
compounds and their reported IC50

Consider the reported IC50 for these compounds:
Task: Recorded IC50 of O=C(/C=C/c1ccc(Cl)cc1F)N1CCN(C(c2ccccc2)c2ccccc2)CC1 , please.
Result: < 100 nM

Task: // IC50 lookup, key: O=C(C=Cc1ccc2c(c1)OCO2)N1CCN(C(=O)c2ccc(C(F)(F)F)cc2)CC1
Result: 100 to 500 nM

Task: State the recorded IC50 for this entry: O=C(/C=C/c1ccc(Br)cc1)N1CCN(C(=O)c2ccc(-c3nnn[nH]3)cc2)CC1
Result: < 100 nM

Task: What does the record list as IC50 for O=C(C#Cc1ccc(Br)cc1)N1CCN(C(=O)c2ccc(F)cc2)CC1 ?
Result: < 100 nM

Task: Can you look up the measured IC50 of Cc1ccc2[nH]c(C(=O)N3CCN(Cc4ccc(Cl)c(Cl)c4)CC3)cc2c1 for me?
Result: < 100 nM

Task: I am curious: what IC50 value has been reported for O=C(C#Cc1ccc(Cl)cc1)N1CCN(Cc2ccc(F)cc2)CC1 ?
Result: < 100 nM

Task: Item O=C(c1ccc(F)cc1)N1CCN(C(=O)c2cc3cc(Cl)ccc3[nH]2)CC1 has what recorded IC50?
Result: < 100 nM

Task: Find the recorded IC50 belonging to Cc1ccc2[nH]c(C(=S)N3CCN(C(c4ccccc4)c4ccccc4)CC3)cc2c1 and report it.
Result: < 100 nM

Task: Reported IC50 for Cc1cc(C)c(S(=O)(=O)N2CCN(C(=O)/C=C/c3ccc(Br)cc3)CC2)c(C)c1 [Compound E1] : what is it?
Result: < 100 nM

Task: May I ask what IC50 has been recorded for O=C(C#Cc1ccc(F)cc1)N1CCN(C(c2ccccc2)c2ccccc2)CC1 ?
Result: < 100 nM

Further cases:
Task: Fill in: IC50 of O=C(/C=C/c1ccccc1)N1CCN(Cc2ccccn2)CC1 is ___
Result: 500 to 5000 nM

Task: IC50 lookup needed for O=C(c1cc2ccc(F)cc2[nH]1)N1CCN(C(=O)c2ccc(F)cc2C(F)(F)F)CC1 , thanks.
Result: 500 to 5000 nM

Task: # get_value(readout='IC50', item= O=C(c1cc2cc(Br)ccc2[nH]1)N1CCN(C(=O)c2ccc(F)cc2C(F)(F)F)CC1 )
Result: < 100 nM

Task: Name the recorded IC50 for O=C(c1cc2ccccc2o1)N1CCN(Cc2ccc3c(c2)OCO3)CC1 .
Result: 100 to 500 nM

Task: Consider the compound shown here: O=C(Nc1cccc(F)c1)C1CCN(C(=O)c2cc3cc(Cl)ccc3[nH]2)CC1 What is its recorded IC50?
Result: 100 to 500 nM

Task: Look up IC50: O=C(/C=C/c1ccccc1F)N1CCN(S(=O)(=O)c2ccc(Br)cc2)CC1
Result: 100 to 500 nM

Task: Record request: IC50 value, item CC(=O)c1ccc(S(=O)(=O)N2CCN(C(=O)/C=C/c3ccc(Br)cc3F)CC2)cc1
Result: < 100 nM

----------
- target_desc: EBI2 (Homo sapiens, UniProt P32249)
- procedure_text: Cell-based luminescent assay (EBI2 modulation)
- details: cell-based luminescence; 7a,25-OHC final assay concentration 80 nM; 60 minutes incubation; read-out: IC50
assay_metric: IC50

Example entries begin here.
Task: Checklist item: IC50 tested on EBI2 (Homo sapiens, UniProt P32249), entry O=C(c1cc2cc(C(F)(F)F)ccc2[nH]1)N1CCN(Cc2ccc(F)cc2)CC1 , value?
Result: < 100 nM

Task: Kindly state the measured IC50 obtained for COc1ccc(/C=C/C(=O)N2CCN(C(c3ccccc3)c3ccccc3)CC2)cc1 with EBI2 (Homo sapiens, UniProt P32249).
Result: < 100 nM

Task: Please state recorded IC50 (tested on EBI2 (Homo sapiens, UniProt P32249)) of O=C(C#Cc1ccc(F)cc1)N1CCN(C(=O)c2ccc(F)cc2C(F)(F)F)CC1
Result: 100 to 500 nM

Task: Form field: IC50 recorded for O=C(c1cc2cc(F)ccc2s1)N1CCN(C(c2ccccc2)c2ccccc2)CC1 with EBI2 (Homo sapiens, UniProt P32249) (enter value)
Result: < 100 nM

Task: Checklist item: IC50 tested on EBI2 (Homo sapiens, UniProt P32249), entry O=C(c1ccc(Br)cc1)N1CCN(Cc2ccc(Cl)cc2)CC1 , value?
Result: 100 to 500 nM

Task: Query the reported IC50 for EBI2 (Homo sapiens, UniProt P32249); item: Cc1ccc(C#CC(=O)N2CCN(Cc3ccc(F)cc3)CC2)cc1
Result: < 100 nM

Task: Can you look up IC50 on EBI2 (Homo sapiens, UniProt P32249) for COc1ccc(C(=O)N2CCN(C(=O)C#Cc3ccc(Br)cc3)CC2)cc1 ?
Result: < 100 nM

Task: Record O=C(C#Cc1cccc(Cl)c1)N1CCN(Cc2ccc(F)cc2C(F)(F)F)CC1 : what is its IC50 with EBI2 (Homo sapiens, UniProt P32249)?
Result: < 100 nM

---
Task: Lab note: need IC50 with EBI2 (Homo sapiens, UniProt P32249) for entry COc1ccc(-c2ccc(S(=O)(=O)N3CCN(C(=O)c4cc5cc(Cl)ccc5[nH]4)CC3)cc2)cc1 , please look it up.
Result: 100 to 500 nM

Task: Record Cc1c(C(=O)N2CCN(C(c3ccccc3)c3ccccc3)CC2)sc2ccccc12 : what is its IC50 with EBI2 (Homo sapiens, UniProt P32249)?
Result: 500 to 5000 nM

Task: Give recorded IC50 with EBI2 (Homo sapiens, UniProt P32249) for the following molecule: COc1ccc(/C=C/C(=O)N2CCN(S(=O)(=O)c3ccccc3)CC2)cc1
Result: < 100 nM

Task: Notebook entry, EBI2 (Homo sapiens, UniProt P32249) assay: IC50 of O=C(c1ccc2nc(C(F)F)[nH]c2c1)N1CCN(C(c2ccccc2)c2ccccc2)CC1 = ?
Result: 100 to 500 nM

Task: # returns recorded IC50 (system: EBI2 (Homo sapiens, UniProt P32249)) for O=C(c1cc2cc(Cl)ccc2[nH]1)N1CCC(Oc2ccccc2)CC1
Result: 100 to 500 nM

Task: Missing value: IC50, EBI2 (Homo sapiens, UniProt P32249), entry COc1ccc(C(=O)N2CCN(C(=O)C#Cc3ccc(C(F)(F)F)cc3)CC2)cc1 . Fill in?
Result: < 100 nM

Task: Give EBI2 (Homo sapiens, UniProt P32249) IC50 for O=C(C#Cc1cccc(Cl)c1)N1CCN(C(c2ccccc2)c2ccccc2)CC1
Result: < 100 nM

Task: Please tell me: IC50 of S=C(c1cnc2ccccc2c1)N1CCN(C(c2ccccc2)c2ccccc2)CC1 , system EBI2 (Homo sapiens, UniProt P32249)?
Result: < 100 nM

Task: For the record O=C(c1ccc(Br)cc1)N1CCN(Cc2ccc(F)cc2C(F)(F)F)CC1 , what value of IC50 is listed for EBI2 (Homo sapiens, UniProt P32249)?
Result: 500 to 5000 nM
